Just for reference, patent US8067589B2 is where these values come from.

pIC50 values, listed per item
target: human recombinant H-PGDS (Homo sapiens, UniProt O60760); experiment: Fluoresecence Intensity h-PGDSTBA Enzyme Assay; settings: IC50, 5.0 μM PGH2, 2.5 mM L-Glutathione, 10 min preincubation, 4-parameter fit, highest inhibitor concentration typically 1 μM
Sequence (O60760 whole entry): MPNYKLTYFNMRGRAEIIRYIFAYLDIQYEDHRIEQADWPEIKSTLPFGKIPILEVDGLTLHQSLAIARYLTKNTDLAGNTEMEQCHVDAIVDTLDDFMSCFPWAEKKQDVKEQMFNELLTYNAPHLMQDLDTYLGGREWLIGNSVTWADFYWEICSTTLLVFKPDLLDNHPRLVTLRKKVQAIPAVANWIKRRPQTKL
Please keep in mind that pIC50 is minus log10 of the molar concentration; only the number is needed.

# molecule, pIC50
rows = [
    ("O=C(NC1CCN(C(COc2ccc(F)c(F)c2F)c2ccccc2)CC1)c1cnc(-c2cccc(F)c2)nc1 (stereo not drawn) [Example 55]", 7.34),
    ("Cc1ccc(Cl)c(OCC(c2ccccc2)N2CCC(NC(=O)c3cnc(-c4cccc(F)c4)nc3)CC2)c1F (stereo not drawn) [Example 43]", 7.46),
    ("COc1cccc(OCC(c2ccccc2)N2CCC(NC(=O)c3cnc(-c4cccc(F)c4)nc3)CC2)c1 (stereo not drawn) [Example 39]", 8.35),
    ("N#Cc1ccccc1C(=O)c1cccnc1N1C[C@H](O)[C@H](NC(=O)c2cnc(-c3cccc(F)c3)nc2)C1 (relative stereo) [Example 97]", 8.42),
    ("O=C(NC1CCN(C(COc2ccc(F)c(F)c2)c2ccccc2)CC1)c1cnc(-c2cccc(F)c2)nc1 (stereo not drawn) [Example 49]", 8.20),
    ("O=C(NC1CCN(Cc2ccccn2)CC1)c1cnc(-c2cccc(CO)c2)nc1 [Example 159]", 5.69),
    ("O=C(NC1CCN(C(COc2ccc(C(F)(F)F)cc2)c2ccccc2)CC1)c1cnc(-c2cccc(F)c2)nc1 (stereo not drawn) [Example 48]", 7.53),
    ("O=C(NC1CCN(Cc2ccc(C(F)(F)F)cc2)CC1)c1cnc(-c2cccc(F)c2)nc1 [Example 67]", 7.52),
    ("O=C(NC1CCN(C2Cc3ccccc3C2)C1=O)c1cnc(-c2cccc(F)c2)nc1 (stereo not drawn) [Example 90]", 9.09),
    ("CC(C)N1CCC(NC(=O)c2cnc(-c3cccc(F)c3)nc2)C1 (stereo not drawn) [Example 87]", 8.18),
]

In plain terms, O=C(NC1CCN(C(COc2ccc(F)c(Cl)c2)c2ccccc2)CC1)c1cnc(-c2cccc(F)c2)nc1 (stereo not drawn) [Example 42] has a documented pIC50 of 7.26

Kindly note the recorded pIC50 for Cc1nc(N2CCC(NC(=O)c3cnc(-c4cccc(F)c4)nc3)CC2)[nH]c(=O)c1CCO [Example 60] , which is 8.99

Reported pIC50 ( COc1ccccc1OCC(c1ccccc1)N1CCC(NC(=O)c2cnc(-c3cccc(F)c3)nc2)CC1 (stereo not drawn) [Example 54] ) = 8.21

Record summary for O=C(NC1CCN(c2ncc3c(n2)CCC3)C1)c1cnc(-c2cccc(F)c2)nc1 (stereo not drawn) [Example 89] : reported pIC50 = 9.83

So for Cc1ccc(OCC(c2ccccc2)N2CCC(NC(=O)c3cnc(-c4cccc(F)c4)nc3)CC2)cc1C (stereo not drawn) [Example 56] , the logged pIC50 turned out to be 7.85

# pIC50 of CCOC(=O)N1CCC(NC(=O)c2cnc(-c3cccc(F)c3)nc2)C1 (stereo not drawn) [Example 82] = 9.18

Lookup result for N#Cc1cc(Cl)ccc1OCC(c1ccccc1)N1CCC(NC(=O)c2cnc(-c3cccc(F)c3)nc2)CC1 (stereo not drawn) [Example 31] ; measured pIC50: 8.11

Lab note: measured pIC50 of CN1CCc2nc(N3CC[C@@H](NC(=O)c4cnc(-c5cccc(F)c5)nc4)C3)ncc2C1 [Example 78a] was 7.89
